Reported GI50 values are given for each entry in this list.
tested on: SNB-19 cells; assay: In vitro cytotoxicity / cell growth inhibition, CNS cancer; type: cell-based; details: Homo sapiens; SNB-19, CNS cancer, 48 hr; read-out: log10 G150 (converted)
Use µM as the unit, but write only the number.

Previously resolved entries follow.
INSERT INTO results (molecule, property_label, measurement_unit, measurement) VALUES
  ('C(CNCCCN1CC1)CNCCCN1CC1 [Synthesis Example 2, 1,11-Diaziridinyl-4,8-diazaundecane]', 'GI50', 'µM', 18.2),
  ('C(CCNCCCN1CC1)CNCCCN1CC1 [Synthesis Example 1, 1,12-Diaziridinyl-4,9-diazadodecane]', 'GI50', 'µM', 1.12),
  ('CC1CN1CCCNCCCCNCCCN1CC1C (stereo not shown) [Synthesis Example 4]', 'GI50', 'µM', 25.7);

Moving on to the next molecule.
Req: Name the recorded GI50 for CC(CCNCCCCNCCC(C)N1CC1)N1CC1 (stereo not shown) [Synthesis Example 3, 2,13-Diaziridinyl-5,10-diazatetradecane] .
Resp: 26.3

Sourced from patent US5612329A
